Experiment: in vivo
Settings: Sprague-Dawley, rat, iv, 5 mg/kg
VALUE_KIND: Tmax at 8 h (min)

1. COc1cc(OC)cc(-c2nn(CCCCCN3CCN(C(=O)/C=C/C(F)(F)F)CC3)c3ncnc(N)c23)c1 :: 4.98

====

Experiment: in vivo
Settings: Sprague-Dawley, rat, po, 5 mg/kg
Description: Clearance in Sprague-Dawley rat at 5 mg/kg, po administered as single dose measured up to 8 hrs by LC/MS-MS analysis
VALUE_KIND: CL/F at 8 h (mL/min)

1) COc1cc(OC)cc(-c2nn(CCCCCN3CCN(C(=O)/C=C/C(F)(F)F)CC3)c3ncnc(N)c23)c1 :: 280000

====

Assay: in vivo
Settings: Sprague-Dawley, rat, iv, 5 mg/kg
Description: Initial plasma concentration in Sprague-Dawley rat at 5 mg/kg, iv administered as single dose measured up to 8 hrs by LC/MS-MS analysis
VALUE_KIND: C0 at 8 h (ng/mL)

1) COc1cc(OC)cc(-c2nn(CCCCCN3CCN(C(=O)/C=C/C(F)(F)F)CC3)c3ncnc(N)c23)c1 :: 0.519

====

System: NCI-H460
Assay: cells
Format: functional, cell-based
Conditions: Homo sapiens, NCI-H460, 96 h
pIC50: −log10 of the molar value.
VALUE_KIND: pIC50

1) COc1cc(OC)cc(-c2nn(CCCCCN3CCN(C(=O)/C=C/C(F)(F)F)CC3)c3ncnc(N)c23)c1 :: < 5.00
2) COc1cc(CCc2cc(NC(=O)c3ccc(N4C[C@@H](C)N[C@@H](C)C4)cc3)n[nH]2)cc(OC)c1 :: < 5.00

====

Test: in vivo
Settings: Sprague-Dawley, rat, po, 5 mg/kg
VALUE_KIND: bioavailability at 8 h (%)

1. COc1cc(OC)cc(-c2nn(CCCCCN3CCN(C(=O)/C=C/C(F)(F)F)CC3)c3ncnc(N)c23)c1 :: 24.9

====

Target: Voltage-gated inwardly rectifying potassium channel KCNH2 (Homo sapiens, UniProt Q12809)
Sequence (Q12809 whole entry): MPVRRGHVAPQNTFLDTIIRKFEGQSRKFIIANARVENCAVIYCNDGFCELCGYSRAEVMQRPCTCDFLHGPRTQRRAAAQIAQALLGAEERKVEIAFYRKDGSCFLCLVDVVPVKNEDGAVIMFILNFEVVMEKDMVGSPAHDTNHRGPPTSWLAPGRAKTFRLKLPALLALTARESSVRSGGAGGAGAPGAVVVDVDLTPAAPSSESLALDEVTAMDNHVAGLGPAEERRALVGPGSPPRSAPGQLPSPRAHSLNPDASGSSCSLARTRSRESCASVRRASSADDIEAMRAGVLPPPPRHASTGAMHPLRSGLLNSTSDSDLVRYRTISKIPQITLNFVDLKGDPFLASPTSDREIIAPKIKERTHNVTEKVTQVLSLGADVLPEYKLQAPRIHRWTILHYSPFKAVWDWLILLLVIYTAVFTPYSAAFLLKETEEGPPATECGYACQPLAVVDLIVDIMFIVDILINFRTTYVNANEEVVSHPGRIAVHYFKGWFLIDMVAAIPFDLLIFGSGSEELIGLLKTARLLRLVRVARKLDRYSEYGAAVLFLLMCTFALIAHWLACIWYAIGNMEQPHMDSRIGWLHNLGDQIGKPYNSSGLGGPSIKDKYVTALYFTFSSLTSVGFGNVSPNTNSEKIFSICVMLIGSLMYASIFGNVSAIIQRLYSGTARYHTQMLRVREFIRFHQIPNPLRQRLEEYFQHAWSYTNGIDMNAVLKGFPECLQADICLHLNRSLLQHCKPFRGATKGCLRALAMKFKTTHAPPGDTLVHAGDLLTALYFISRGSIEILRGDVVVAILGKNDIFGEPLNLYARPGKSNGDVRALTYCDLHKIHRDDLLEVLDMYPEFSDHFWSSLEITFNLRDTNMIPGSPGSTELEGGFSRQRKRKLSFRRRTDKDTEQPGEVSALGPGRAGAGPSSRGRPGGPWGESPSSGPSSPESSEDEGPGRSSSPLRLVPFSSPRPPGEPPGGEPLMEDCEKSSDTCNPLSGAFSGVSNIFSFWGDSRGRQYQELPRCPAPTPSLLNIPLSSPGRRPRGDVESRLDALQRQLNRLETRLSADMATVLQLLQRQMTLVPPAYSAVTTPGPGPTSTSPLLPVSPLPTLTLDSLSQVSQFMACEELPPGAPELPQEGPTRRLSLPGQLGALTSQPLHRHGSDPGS
pIC50: −log10 of the molar value.
VALUE_KIND: pIC50

1) COc1cc(OC)cc(-c2nn(CCCCCN3CCN(C(=O)/C=C/C(F)(F)F)CC3)c3ncnc(N)c23)c1 :: 5.49

====

Test system: Huh-7
Assay: cells
Type: functional, cell-based
Details: Homo sapiens, Huh-7, 96 h
VALUE_KIND: IC50

1. COc1cc(CCc2cc(NC(=O)c3ccc(N4C[C@@H](C)N[C@@H](C)C4)cc3)n[nH]2)cc(OC)c1 [FEXAGRATINIB] :: > 10 µM

====

Experiment: in vivo
Conditions: Sprague-Dawley, rat, iv, 5 mg/kg
VALUE_KIND: AUC at 8 h (ng·h/mL)

1) COc1cc(OC)cc(-c2nn(CCCCCN3CCN(C(=O)/C=C/C(F)(F)F)CC3)c3ncnc(N)c23)c1 :: 0.309

====

Assay: in vivo
Settings: Sprague-Dawley, rat, po, 5 mg/kg
Description: MRT in Sprague-Dawley rat at 5 mg/kg, po administered as single dose measured up to 8 hrs by LC/MS-MS analysis
VALUE_KIND: MRT at 8 h (min)

1. COc1cc(OC)cc(-c2nn(CCCCCN3CCN(C(=O)/C=C/C(F)(F)F)CC3)c3ncnc(N)c23)c1 :: 19.1

====

Test: in vivo
Conditions: Sprague-Dawley, rat, po, 5 mg/kg
VALUE_KIND: Tmax at 8 h (min)

1) COc1cc(OC)cc(-c2nn(CCCCCN3CCN(C(=O)/C=C/C(F)(F)F)CC3)c3ncnc(N)c23)c1 :: 8.34

====

Assay: in vivo
Details: Sprague-Dawley, rat, iv, 5 mg/kg
Description: MRT in Sprague-Dawley rat at 5 mg/kg, iv administered as single dose measured up to 8 hrs by LC/MS-MS analysis
VALUE_KIND: MRT at 8 h (h)

1) COc1cc(OC)cc(-c2nn(CCCCCN3CCN(C(=O)/C=C/C(F)(F)F)CC3)c3ncnc(N)c23)c1 :: 1.01
